We begin with a simple list: items and their reported pIC50.
Tested on: MKN1 cells
Test: MKN1 CTG proliferation assay (120 h) (gastric cancer, wt amplified)
Assay type: cell-based
Details: Homo sapiens, MKN-1, assay 2, CTG 120 h, read-out: MKN1 (assay 2) IC50
Lab note — pIC50 values are minus log10 of concentrations in M.

C[C@H](Oc1cc(N2C[C@H](C)NC3(CC3)C2)nc(-c2noc3c2CCC[C@@]32CCCc3sc(N)c(C#N)c32)n1)[C@@H]1C[C@@H](F)CN1C	6.55
C[C@H](Oc1cc(-n2cc3c(n2)CN(C)C3)nc(-c2noc3c2CCC[C@@]32CCCc3sc(N)c(C#N)c32)n1)[C@@H]1CCCN1C	6.47
C[C@H](Oc1cc(-n2ccc(C(=O)N[C@@H]3CCOC3)n2)nc(-c2noc3c2CCC[C@@]32CCCc3sc(N)c(C#N)c32)n1)[C@@H]1CCCN1C	7.59
CO[C@@H]1C[C@@H]([C@H](C)Oc2cc(N3CCNC4(CC4)C3)nc(-c3noc4c3CCC[C@@]43CCCc4sc(N)c(C#N)c43)n2)N(C)C1	6.42

Let us examine a further case.
Value lookup for pIC50; key = `C[C@H](Oc1cc(N2CCN(C)C3(CC3)C2)nc(-c2noc3c2CCC[C@@]32CCCc3sc(N)c(C#N)c32)n1)[C@@H]1C[C@@H](F)CN1C`
6.33

Cited source for all entries: patent US20240174690A1
